Data origin: the supplement of paper PMC7125110

B1: glmS ribozyme (parent)
chain: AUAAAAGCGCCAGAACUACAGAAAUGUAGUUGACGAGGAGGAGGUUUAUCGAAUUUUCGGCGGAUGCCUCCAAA

variants of: B1; experiment: self-cleavage kobs at 2500 uM GlcN6P; higher = faster cleavage; RNA array; settings: with glucosamine-6-phosphate
Fewer inactive variants are shown than the library holds.
Measured self-cleavage kobs at 2500 uM GlcN6P values are reported for all entries that follow.
readout.type: self-cleavage kobs at 2500 uM GlcN6P

{"columns": ["mutation", "result"],
 "data": [
  ["A15G U46G A48U G59A", "< 1e-05 s⁻¹"],
  ["U46C A53G U54C", "0.00116 s⁻¹"],
  ["G40A U47A", "0.0033 s⁻¹"],
  ["G7C C16A G43C U45G C71U", "< 1e-05 s⁻¹"],
  ["A15G A33C U45A", "0.000135 s⁻¹"],
  ["G38U U45G G51A C67U", "< 1e-05 s⁻¹"],
  ["G7A G43U U49G G63C A64U", "< 1e-05 s⁻¹"],
  ["G40U U49C U65G", "< 1e-05 s⁻¹"],
  ["G13U A42G", "0.00082 s⁻¹"],
  ["G7C C11U G40U C71A", "< 1e-05 s⁻¹"],
  ["A48U C67U", "0.000135 s⁻¹"],
  ["U55G C68G", "7.64e-05 s⁻¹"],
  ["C34U A39U", "< 1e-05 s⁻¹"],
  ["A12G G32U U45G G59U", "< 1e-05 s⁻¹"],
  ["A14U G62C", "< 1e-05 s⁻¹"],
  ["A15G U56C", "0.00116 s⁻¹"],
  ["A12U G44C A53G U56A", "7.9e-05 s⁻¹"],
  ["U46C U47A", "0.00311 s⁻¹"],
  ["C11U C58U", "4.05e-05 s⁻¹"],
  ["U55A C70G", "0.000117 s⁻¹"],
  ["C58A A64U", "< 1e-05 s⁻¹"],
  ["A15G A33U G40U G41A", "< 1e-05 s⁻¹"],
  ["G13C U47A U69G", "0.000497 s⁻¹"],
  ["G44C C58A", "< 1e-05 s⁻¹"],
  ["C11U C50G", "0.000104 s⁻¹"],
  ["G13U C16G", "0.000305 s⁻¹"],
  ["U30G C67A C70U", "0.000399 s⁻¹"],
  ["G29A U45G", "0.000503 s⁻¹"],
  ["C10G C11A A33C A36U A52U A53C U56A G62U", "< 1e-05 s⁻¹"],
  ["G35A A39G U57C", "< 1e-05 s⁻¹"],
  ["U54A C68U", "0.000405 s⁻¹"]
]}
